Entry source: ChEMBL document CHEMBL1131493

# Target Of Assay: Protein farnesyltransferase (Homo sapiens, UniProt P49354+P49356)
# Method Description: Inhibition of Farnesyltransferase from Ras-CVLS or Ras-CVLL in Cos-7 monkey kidney cells
# Type: cell-based, Chlorocebus aethiops
pIC50: −log10 of the molar value.
Reported pIC50 values follow for various compounds
Quantity: pIC50

[[record]]
compound = "CC(=O)N1CCC(CC(=O)N2CCN([C@H]3c4ccc(Cl)cc4CCc4cccnc43)CC2)CC1"
comparison_operator = "="
measured = 5.21

[[record]]
compound = "CC(C)(C(=O)N1CCN(C2c3ccc(Cl)cc3CCc3cc(Br)cnc32)CC1)c1cccnc1 (stereo unspecified)"
comparison_operator = "="
measured = 6.05

[[record]]
compound = "O=C(Nc1ccc[n+]([O-])c1)N1CCN(C2c3ccc(Cl)cc3CCc3cc(Br)cnc32)CC1 (stereo unspecified)"
comparison_operator = "="
measured = 5.44

[[record]]
compound = "CC(=O)N1CCC(CC(=O)N2CCN(C3c4ccc(Cl)cc4CCc4cccnc43)CC2)CC1 (stereo unspecified)"
comparison_operator = "="
measured = 5.57

[[record]]
compound = "O=C(Cc1ccc[n+]([O-])c1)N1CCN(C2c3ccc(Cl)cc3CCc3ccc[n+]([O-])c32)CC1 (stereo unspecified)"
comparison_operator = "<"
measured = 4.70

[[record]]
compound = "O=C(CC1CCNCC1)N1CCN(C2c3ccc(Cl)cc3CCc3cc(Br)cnc32)CC1 (stereo unspecified)"
comparison_operator = "="
measured = 6.77

[[record]]
compound = "CC(=O)C1CCC(C(=O)N2CCN(C3c4ccc(Cl)cc4CCc4cccnc43)CC2)CC1 (stereo unspecified)"
comparison_operator = "="
measured = 5.31

[[record]]
compound = "CCCNC(=O)N1CCC(CC(=O)N2CCN(C3c4ccc(Cl)cc4CCc4cc(Br)cnc43)CC2)CC1 (stereo unspecified)"
comparison_operator = "="
measured = 5.82

[[record]]
compound = "COCC[C@H]1CN(C2c3ccc(Cl)cc3CCc3cc(Br)cnc32)CCN1C(=O)Cc1cc[n+]([O-])cc1 (stereo partly specified)"
comparison_operator = ">"
measured = 6.60

[[record]]
compound = "O=C(CC1CCNCC1)N1CCN([C@@H]2c3ccc(Cl)cc3CCc3cc(Br)cnc32)CC1"
comparison_operator = "="
measured = 6.25

[[record]]
compound = "O=C(Oc1cccnc1)N1CCN([C@H]2c3ccc(Cl)cc3CCc3cccnc32)CC1"
comparison_operator = "="
measured = 5.41

[[record]]
compound = "O=C(Cc1cc[n+]([O-])cc1)N1CCN(C2c3ccc(Cl)cc3C=Cc3cc(Br)cnc32)CC1 (stereo unspecified)"
comparison_operator = "="
measured = 6.46

[[record]]
compound = "O=C(Nc1cccnc1)N1CCN([C@H]2c3ccc(Cl)cc3CCc3cccnc32)CC1"
comparison_operator = "="
measured = 5.14

[[record]]
compound = "O=C(Oc1cccnc1)N1CCN([C@@H]2c3ccc(Cl)cc3CCc3cccnc32)CC1"
comparison_operator = "="
measured = 5.16

[[record]]
compound = "O=C(Cc1ccc(Br)cc1)N1CCN(C2c3ccc(Cl)cc3CCc3cccnc32)CC1 (stereo unspecified)"
comparison_operator = "="
measured = 5.29

[[record]]
compound = "O=C(Oc1ccc[n+]([O-])c1)N1CCN(C2c3ccc(Cl)cc3CCc3cc(Br)cnc32)CC1 (stereo unspecified)"
comparison_operator = "="
measured = 5.22

[[record]]
compound = "CCCC[C@H]1CN(C2c3ccc(Cl)cc3CCc3cc(Br)cnc32)CCN1C(=O)Cc1cc[n+]([O-])cc1 (stereo partly specified)"
comparison_operator = "="
measured = 6.20

[[record]]
compound = "CC(C)(C(=O)N1CCN(C2c3ccc(Cl)cc3CCc3cc(Br)cnc32)CC1)c1cc[n+]([O-])cc1 (stereo unspecified)"
comparison_operator = "="
measured = 5.30

[[record]]
compound = "O=C(Oc1cccnc1)N1CCN(C2c3ccc(Cl)cc3CCc3cccnc32)CC1 (stereo unspecified)"
comparison_operator = "="
measured = 5.52

[[record]]
compound = "CN1CCCC(CC(=O)N2CCN(C3c4ccc(Cl)cc4CCc4cccnc43)CC2)C1 (stereo unspecified)"
comparison_operator = "="
measured = 5.62

[[record]]
compound = "O=C(Nc1cccnc1)N1CCN(C2c3ccc(Cl)cc3CCc3cc(Br)cnc32)CC1 (stereo unspecified)"
comparison_operator = "="
measured = 5.43

[[record]]
compound = "COCC[C@H]1CN(C2c3ccc(Cl)cc3CCc3cc(Br)cnc32)CCN1C(=O)CC1CCN(C(N)=O)CC1 (stereo partly specified)"
comparison_operator = "="
measured = 5.77

[[record]]
compound = "CC(=O)N1CCC(CC(=O)N2CCN(C3c4ccc(Cl)cc4CCc4cc(Br)cnc43)CC2)CC1 (stereo unspecified)"
comparison_operator = "="
measured = 6.23

[[record]]
compound = "CN1CCC(CC(=O)N2CCN(C3c4ccc(Cl)cc4CCc4c(Cl)ccnc43)CC2)CC1 (stereo unspecified)"
comparison_operator = "="
measured = 5.24

[[record]]
compound = "CN1CCC(CC(=O)N2CCN(C3c4ccc(Cl)cc4CCc4cccnc43)CC2)CC1 (stereo unspecified)"
comparison_operator = "="
measured = 6.03

[[record]]
compound = "O=C(Cc1cc[n+]([O-])cc1)N1CCN([C@H]2c3ccc(Cl)cc3CCc3cccnc32)CC1"
comparison_operator = "="
measured = 5.30

[[record]]
compound = "CC(C)(C(=O)N1CCN(C2c3ccc(Cl)cc3CCc3cccnc32)CC1)c1cccnc1 (stereo unspecified)"
comparison_operator = "="
measured = 5.21

[[record]]
compound = "O=C(Cc1ccncc1)N1CCN(C2c3ccc(Cl)cc3CCc3cc(Br)cnc32)CC1 (stereo unspecified)"
comparison_operator = "="
measured = 6.42

[[record]]
compound = "O=C(Nc1cc[n+]([O-])cc1)N1CCN(C2c3ccc(Cl)cc3CCc3cc(Br)cnc32)CC1 (stereo unspecified)"
comparison_operator = "="
measured = 5.24

[[record]]
compound = "CN1CCC(NC(=O)N2CCN(C3c4ccc(Cl)cc4CCc4cc(Br)cnc43)CC2)CC1 (stereo unspecified)"
comparison_operator = "="
measured = 6.28

[[record]]
compound = "O=C(Nc1cccnc1)N1CCN(C2c3ccc(Cl)cc3CCc3cccnc32)CC1 (stereo unspecified)"
comparison_operator = "="
measured = 5.32

[[record]]
compound = "N[C@@H](CO)C(=O)N1CCC(CC(=O)N2CCN(C3c4ccc(Cl)cc4CCc4cc(Br)cnc43)CC2)CC1 (stereo partly specified)"
comparison_operator = "="
measured = 5.98

[[record]]
compound = "CNC(=O)N1CCC(CC(=O)N2CCN(C3c4ccc(Cl)cc4CCc4cc(Br)cnc43)CC2)CC1 (stereo unspecified)"
comparison_operator = "="
measured = 6.12

[[record]]
compound = "CC(C)(C(=O)N1CCN(C2c3ccc(Cl)cc3CCc3cc(Br)cnc32)CC1)c1ccc[n+]([O-])c1 (stereo unspecified)"
comparison_operator = "="
measured = 5.66

[[record]]
compound = "CC(=O)N1CCC(C(=O)N2CCN([C@H]3c4ccc(Cl)cc4CCc4cccnc43)CC2)CC1"
comparison_operator = "="
measured = 5.19

[[record]]
compound = "O=C(Nc1ccccn1)N1CCN(C2c3ccc(Cl)cc3CCc3cccnc32)CC1 (stereo unspecified)"
comparison_operator = "="
measured = 5.89

